Reported T/C values follow for various compounds
# Test system: BDF1 mice, Adenocarcinoma 755 s.c., tumor weight T/C
# run description: NCI In Vivo Anticancer Drug Screen. Data for tumor model Adenocarcinoma 755 (subcutaneous) in B6D2F1 (BDF1) mice
# experimental conditions: endpoint: mean tumor weight; dose: 12.0 mg/kg/injection; schedule: Q01DX011 (ip); vehicle: other; higher = larger tumour
measured metric: T/C

[[record]]
compound = "CCN(CC)c1ccc2cc3ccc(=[N+](CC)CC)cc-3oc2c1"
assay_value = "90 % of control"

[[record]]
compound = "c1nc(N2CC2)c2cnn(C3CCCCO3)c2n1 (stereo not given)"
assay_value = "99 % of control"

[[record]]
compound = "COCCCNS(=O)(=O)c1ncnc2nc[nH]c12"
assay_value = "43 % of control"

[[record]]
compound = "CCCC(=O)OCC1OC(n2cnc3c(=S)nc[nH]c32)C(OC(=O)CCC)C1OC(=O)CCC (stereo not given)"
assay_value = "6 % of control"

[[record]]
compound = "CCNS(=O)(=O)c1ncnc2nc[nH]c12"
assay_value = "32 % of control"

